- procedure.details: qHTS assay to identify small molecule antagonists of the glucocorticoid receptor (GR) signaling pathway - cell viability counter screen (AID 720693); further: on the % scale 0 is the no-effect control and ±100 the full control effect; nearly all actives have a fitted effect of over 55% in size
- experimental.setup: GR-bla HeLa viability, CellTiter-Glo luminescence, 18 h, with 5 nM dexamethasone present; series mostly up to 58.5 µM
Inconclusive results are not listed. Activity calls are given as the source filed them. The call rests on the fitted dose curve; in most records, active means well fitted cell-killing curve with a large enough effect in the repeat runs; inconclusive means weak or mixed curves, or effect the other way; inactive means no such curve, though single readings can be large or run the other way.

compound	outcome
CCC(O)c1ccccc1 (centres undefined)	inactive
CCCCCCCCCC[N+](C)(CCCCCCCCCC)CCC[Si](OC)(OC)OC	inactive
CC(=O)O[C@H]1C[C@@H]2CC[C@@H]3[C@H](CC[C@@]4(C)[C@H]3C[C@H]([N+]3(C)CCCCC3)[C@@H]4OC(C)=O)[C@@]2(C)C[C@@H]1[N+]1(C)CCCCC1	inactive
CO/N=C(\C(=O)N[C@@H]1C(=O)N2C(C(=O)[O-])=C(C[n+]3cccc4c3CCC4)CS[C@H]12)c1csc(N)n1	inactive

* * *

- procedure.details: A CellTox Green Cytotoxicity Assay to monitor cytotoxicity in HepG2 cells - 32 hour (AID 1224883); further: nearly all actives have a fitted effect of over 50% in size
- experimental.setup: CellTox Green fluorescence; series mostly up to 76.8 µM
Inconclusive results are not listed. Calls of active or inactive are those of the source. Calls follow the shape of the dose curve; as a rule, active = well fitted activation curve with a large enough effect in the repeat runs; inconclusive = weak or mixed curves; inactive = flat fitted curve, though single readings scatter.
One label from this list, please: active, inactive

Before answering, review these 10 worked examples.
> print(dat)
                                    compound  qualitative.label
 1                CCNc1nc(NC(C)(C)C)nc(OC)n1           inactive
 2               Nc1ccc(Cl)c([N+](=O)[O-])c1           inactive
 3  CCCCCCCCCC[N+](C)(CCCCCCCCCC)CCC[Si](OC)(OC)OC             active
 4        Nc1ccc(Oc2cccc(Oc3ccc(N)cc3)c2)cc1           inactive
 5  CC1(C)[C@H](C(=O)OCc2cccc(Oc3ccccc3)c2)[C@@H]1C=C(Cl)Cl           inactive
 6  CC(CC(C)(C)C)CC(C)(C)CC(C)(C)C (centres undefined)           inactive
 7                             O=c1cc[nH]cc1           inactive
 8  COc1cccc(-c2ccc(/C=C\CN3CCCCCC3)cc2Cl)c1             active
 9                Nc1ccc(F)c([N+](=O)[O-])c1           inactive
10     Nc1ccc2c(S(=O)(=O)O)cccc2c1S(=O)(=O)O           inactive

Query: Could you please tell me the result logged for CC(C)=NNC(N)=S in this assay?
Result: inactive

Query: Could you please tell me the result logged for O=C(N[C@H](CO)[C@H](O)c1ccc([N+](=O)[O-])cc1)C(Cl)Cl in this assay?
Result: inactive

Query: Could you please tell me the result logged for CC(O)(c1ccc(Cl)cc1)c1ccc(Cl)cc1 in this assay?
Result: active

Query: Could you please tell me the result logged for CCOC(=O)[C@H](C)O in this assay?
Result: inactive

* * *

- procedure.details: qHTS assay to identify small molecule antagonists of the androgen receptor (AR) signaling pathway using the MDA cell line - cell viability counter screen (AID 743041; further: nearly all actives have a fitted effect of over 45% in size)
- experimental.setup: MDA-kb2 viability, CellTiter-Fluor, 16 h, cells co-treated with R1881 androgen agonist; series mostly up to 70.3 µM
Records with an inconclusive call do not appear. Active and inactive are the calls of the source. The call rests on the fitted dose curve; in most records, active means well fitted cell-killing curve with a large enough effect in the repeat runs; inconclusive means weak or mixed curves, or effect the other way; inactive means flat fitted curve, though single readings scatter.
One label from this list, please: active, inactive

Before answering, review these 5 worked examples.
compound	qualitative.label
NC(=O)[C@@H]1CCCN1C(=O)[C@H](Cc1cnc[nH]1)NC(=O)[C@@H]1CCC(=O)N1	inactive
CC1(C)CCC(NC(=O)[C@@H](N)CCC(=O)O)CC1	inactive
CCCCCCCCCCCC[n+]1ccc2ccccc2c1	active
Cc1cc(=O)c(C(=O)N[C@@H](C(=O)N[C@@H]2C(=O)N3C(C(=O)O)=C(CSc4nnnn4C)CS[C@H]23)c2ccc(O)cc2)c[nH]1	inactive
CC1=C(/C=C/C(C)=C/C=C/C(C)=C/C=C/C=C(C)/C=C/C=C(C)/C=C/C2=C(C)CCCC2(C)C)C(C)(C)CCC1	inactive

Query: Could you please tell me the result logged for CC[C@H]1OC(=O)C[C@@H](O)[C@H](C)[C@@H](O[C@@H]2O[C@H](C)[C@@H](O[C@H]3C[C@@](C)(O)[C@@H](O)[C@H](C)O3)[C@H](N(C)C)[C@H]2O)[C@@H](CC=O)C[C@@H](C)C(=O)/C=C/C(C)=C/[C@@H]1CO[C@@H]1O[C@H](C)[C@@H](O)[C@@H](OC)[C@H]1OC in this assay?
Result: inactive

Query: Could you please tell me the result logged for C/C(=C(/CCO)SSCC1CCCO1)N(C=O)Cc1cnc(C)nc1N (stereo not given) in this assay?
Result: inactive

Query: Could you please tell me the result logged for CN1C(=O)C[C@@H](C(=O)N[C@@H](Cc2cnc[nH]2)C(=O)N2CCC[C@H]2C(N)=O)NC1=O in this assay?
Result: inactive

Query: Could you please tell me the result logged for CO/N=C(\C(=O)N[C@@H]1C(=O)N2C(C(=O)O)=C(CSc3nc(C)c(CC(=O)O)s3)CS[C@H]12)c1csc(N)n1 in this assay?
Result: inactive

Query: Could you please tell me the result logged for C1CCc2nnnn2CC1 in this assay?
Result: inactive

* * *

- experimental.system: Luciferin 4-monooxygenase (Photinus pyralis) (UniProt P08659)
- Sequence (P08659 whole entry, looked up): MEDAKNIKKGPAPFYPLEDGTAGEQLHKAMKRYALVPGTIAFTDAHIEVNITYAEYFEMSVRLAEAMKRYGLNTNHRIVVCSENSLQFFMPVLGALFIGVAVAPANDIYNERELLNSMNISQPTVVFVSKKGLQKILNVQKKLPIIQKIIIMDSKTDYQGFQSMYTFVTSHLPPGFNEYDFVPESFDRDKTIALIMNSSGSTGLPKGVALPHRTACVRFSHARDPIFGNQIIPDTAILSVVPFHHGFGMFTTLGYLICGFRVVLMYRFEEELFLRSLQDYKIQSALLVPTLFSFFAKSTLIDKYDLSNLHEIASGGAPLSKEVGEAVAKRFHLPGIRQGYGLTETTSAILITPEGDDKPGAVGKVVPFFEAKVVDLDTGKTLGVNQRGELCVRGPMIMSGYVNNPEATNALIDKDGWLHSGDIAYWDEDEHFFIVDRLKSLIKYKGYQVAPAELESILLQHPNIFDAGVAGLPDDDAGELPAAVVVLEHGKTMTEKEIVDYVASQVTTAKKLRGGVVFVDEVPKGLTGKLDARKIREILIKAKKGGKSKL
- procedure.details: qHTS assay to identify small molecule inhibitors of firefly luciferase (AID 1224835); further: nearly all actives have a fitted effect of over 25% in size
- experimental.setup: purified P. pyralis luciferase, luminescence inhibition; series mostly up to 115 µM
Records with an inconclusive call do not appear. Activity calls are given as the source filed them. Calls follow the shape of the dose curve; as a rule, active = well fitted inhibition curve with a large enough effect in the repeat runs; inconclusive = weak or mixed curves; inactive = flat fitted curve, though single readings scatter.
One label from this list, please: active, inactive

Before answering, review these 2 worked examples.
> print(dat)
                                   molecule  qualitative.label
1               Nc1ccc(Cl)c([N+](=O)[O-])c1           inactive
2  C=CC(=O)OCC(Br)CBr (configuration not stated)           inactive

Query: Could you please tell me the result logged for CCOC(=O)[C@H](O)[C@@H](O)C(=O)OCC in this assay?
Result: inactive

Query: Could you please tell me the result logged for Nc1ccc(N)c([N+](=O)[O-])c1 in this assay?
Result: active

Query: Could you please tell me the result logged for CC(C)(c1ccc(Oc2ccc(N)cc2)cc1)c1ccc(Oc2ccc(N)cc2)cc1 in this assay?
Result: active

Query: Could you please tell me the result logged for Clc1cccc(Cl)n1 in this assay?
Result: inactive

Query: Could you please tell me the result logged for CCc1cccc(CC)c1 in this assay?
Result: inactive

* * *

- experimental.system: Glucocorticoid receptor (Homo sapiens)
- procedure.details: qHTS assay to identify small molecule agonists of the glucocorticoid receptor (GR) signaling pathway (AID 720691); on activation: on the % scale 0 is the no-effect control and ±100 the full control effect
- experimental.setup: GR-bla HeLa, beta-lactamase reporter ratio, 18 h
Activity calls are given as the source filed them. Calls come from the whole dose curve; as a rule, active = well fitted activation curve with a large enough effect in the signal ratio in the repeat runs (not every such curve was filed as active); inconclusive = weak or mixed curves, or effect the other way; inactive = no such curve, though single readings can be large or run the other way; the % refers to the signal ratio.
One label from this list, please: yes for active, no for inactive

Before answering, review these 3 worked examples.
> print(dat)
                                chem.smiles  qualitative.label
1               NC(=O)C1c2ccccc2CCc2ccccc21                 no
2  CCCCC[C@H](O)/C=C/[C@@H]1[C@@H](C/C=C\CCCC(=O)O)[C@@H](O)C[C@H]1O                 no
3  CC[C@@H](C(=O)[C@@H](C)[C@@H](O)[C@H](C)CCc1ccc(C)c(O)c1C(=O)O)[C@H]1O[C@](CC)([C@H]2CC[C@](O)(CC)[C@H](C)O2)C[C@@H]1C                yes

Query: Could you please tell me the result logged for CCCCCN=C(N)N/N=C/c1c[nH]c2ccc(OC)cc12 in this assay?
Result: no

Query: Could you please tell me the result logged for CN(C/C=C/c1ccccc1)Cc1cccc2ccccc12 in this assay?
Result: no

Query: Could you please tell me the result logged for CC(C)=CCC/C(C)=C/CC/C(C)=C/CC/C=C(\C)CC/C=C(\C)CCC=C(C)C in this assay?
Result: no

* * *

Items are presented alongside their recorded activity change, negative = cytotoxicity.
- procedure.details: qHTS RealTime-Glo MT Cell Viability Assay in HEK293 cells - 16 hour (AID 1224872); further: top concentration of the series differs between compounds; on the % scale 0 is the no-effect control and ±100 the full control effect; nearly all actives have a fitted effect of over 50% in size
- experimental.setup: RealTime-Glo luminescence; series mostly up to 76.8 µM
Records with an inconclusive call do not appear. Active and inactive are the calls of the source. Calls come from the whole dose curve; as a rule, active = well fitted cell-killing curve with a large enough effect in the repeat runs; inconclusive = weak or mixed curves, or effect the other way; inactive = flat fitted curve, though single readings scatter.

Query: State its activity change, negative = cytotoxicity: C=CC(=O)OCCOC1C2CCC1C1CC=CC12 (centres undefined)
Result: -2.12% [at 15.8 µM] (inactive)

Query: State its activity change, negative = cytotoxicity: O=C(O)CN(CCCN(CC(=O)O)CC(=O)O)CC(=O)O
Result: -5.66% [at 15.8 µM] (inactive)

Query: State its activity change, negative = cytotoxicity: CCCCCCCCCCCCS(=O)(=O)Cl
Result: 11.1% [at 15.8 µM] (inactive)

Query: State its activity change, negative = cytotoxicity: O=C(O)C[C@H](O)C[C@H](O)/C=C/c1c(C2CC2)nc2ccccc2c1-c1ccc(F)cc1
Result: 7.11% [at 15.8 µM] (inactive)
